FYI, the data here is from patent US20220395553A1.

# Experimental Target: ProLink tagged human CXCR4 (C2C12 CXCR4 β-Arrestin cell line) (human, UniProt P61073 1-352)
# Sequence (P61073 whole entry): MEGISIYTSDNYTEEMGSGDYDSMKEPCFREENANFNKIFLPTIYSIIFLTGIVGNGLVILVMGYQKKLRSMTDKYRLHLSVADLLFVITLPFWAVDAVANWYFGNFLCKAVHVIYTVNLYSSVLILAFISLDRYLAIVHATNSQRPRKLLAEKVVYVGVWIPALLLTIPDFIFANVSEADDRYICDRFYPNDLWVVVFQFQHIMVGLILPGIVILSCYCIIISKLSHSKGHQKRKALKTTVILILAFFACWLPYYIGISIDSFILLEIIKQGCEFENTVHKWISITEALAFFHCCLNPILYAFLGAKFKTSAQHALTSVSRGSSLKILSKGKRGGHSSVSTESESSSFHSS
# Measurement Description: cell-based or functional assay
Square brackets hold non-standard residues; d marks the D form. Ends that are not written are not given here.
Property Name: IC50 for Inhibition of CXCR4 Activation (β-Arrestin recruitment) (nM)
Field: numeric (nM). Do not append units.

INSERT INTO measurements (binder, measured_number) VALUES
  ('LRRYHHSVRSSLRGYTK [SEQ ID NO: 79]', 3),
  ('LRRYHHS[dA]RSSLEPYTK [SEQ ID NO: 65]', 40),
  ('LRRYHHS[dA]DSSLRPYTK [SEQ ID NO: 68]', 13);

Q: Look up IC50 for Inhibition of CXCR4 Activation (β-Arrestin recruitment) for this binder: LRRYHHSVRSSLEPYTK [SEQ ID NO: 63]
Result: 14

Q: Entry under review: LERYHHSVRSS [SEQ ID NO: 23] . Reported IC50 for Inhibition of CXCR4 Activation (β-Arrestin recruitment)?
Result: 28

Q: Fill in the blank: the reported IC50 for Inhibition of CXCR4 Activation (β-Arrestin recruitment) of LRRYHHSVRSSLRPYT [SEQ ID NO: 24] is ____.
Result: 102

Q: Fill in the blank: the reported IC50 for Inhibition of CXCR4 Activation (β-Arrestin recruitment) of LRRYHHSVRSSLRPYSK [SEQ ID NO: 72] is ____.
Result: 5

Q: IC50 for Inhibition of CXCR4 Activation (β-Arrestin recruitment) lookup needed for LRRYNHSVRSSLRPYTK [SEQ ID NO: 41] , thanks.
Result: 4

Q: If you can, please state the reported IC50 for Inhibition of CXCR4 Activation (β-Arrestin recruitment) value of LRRYHHSVRTSLRPYTK [SEQ ID NO: 70] .
Result: 2
